Below, each entry is listed with its recorded % Inhibition.
Tgt: T1, human ASGR-1 (human, UniProt P07306 1-291)
T1 construct: Stably expressed on CHO-S cells (CHO-S:huASGR-1); The method text says human or mouse ASGR-1 cells were used; also called huASGR-1; hASGR-1
T1 sequence: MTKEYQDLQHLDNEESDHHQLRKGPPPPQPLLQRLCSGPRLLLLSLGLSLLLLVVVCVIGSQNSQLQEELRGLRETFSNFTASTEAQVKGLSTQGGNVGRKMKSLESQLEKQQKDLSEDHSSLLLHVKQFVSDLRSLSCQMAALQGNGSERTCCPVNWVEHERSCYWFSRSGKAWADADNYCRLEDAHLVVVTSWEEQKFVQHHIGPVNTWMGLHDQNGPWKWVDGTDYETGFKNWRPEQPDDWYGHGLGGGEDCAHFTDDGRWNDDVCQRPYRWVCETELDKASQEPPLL
Test Method Notes: FACS ligand blocking on CHO-S ASGR-1 cells; competitor biotinylated asialofetuin
Protocol: All ASGR-1 antibodies that bound either human or mouse ASGR-1 stable CHO—S cells were then tested for ligand blocking using both a protein ligand and a synthetic sugar ligand. […] The plates were read and processed similarly to the cell binding method except the signal now represents an inhibition curve and typically decreases a function of increasing antibody concentration. […]

>  <Binder>
7F4 (antibody, V domains shown) VH: QLQLQESGPGLVKPSETLSLTCTVSGGSISRSSYYWGWIRQPPGKGLEWIGNIYYSGATYYNPSLKSRVTISVDTSTNQFSLKLSSVTAADTAVYYCARHSGSWSLDYWGQGTLVTVSS VL: DIQMTQSPSSLSASVGDRVTITCRTSQGIRNDLGWYQQKPGKAPKRLIYAASNLQSGVPSRFSGSGSGTEFTLTISSLQPEDFATYYCLQHSAYPLTFGGGTKVEIK

>  <% Inhibition (%)>
99

$$$$
>  <Binder>
194C10 (antibody, V domains shown) VH: QVQLQQWGAGLLKPSETLSLTCAVSGGSFRYYYWSWIRQPPGKGLEWFGEINHSGSTNYNPSLKSRVTISIDTSKNQFSLKLRSVTAADTAVYYCARDYGAFDIWGQGTMVTVSS VL: EIVLTQSPGTLSLSPGERATLSCRASPSVNSGYLAWYQQKPGQTPRLLIFGASSRATGIPDRFSASGSGADFTLTISRLEPEDFAVYFCQQYESSPWTFGQGTKVEIK

>  <% Inhibition (%)>
99

$$$$
>  <Binder>
72G9 (antibody, V domains shown) VH: EVQLVESGGGLVKPGGSLRLSCAASGFTFSSYSMNWVRQAPGKGLEWVSSISGSSSYIYYADSVKGRFTISRDNAKNSLYLQMNSLRAEDTAVYFCARGGSRGFDPWGQGTLVTVSS VL: DIQMTQSPSSLSASVGDRVTITCRASQSITSYLNWYQQKPGKAPKLLIYTASSLQSGVPSRFSGSGSGTDFTLTISSLQPEDFATYYCQQSHSFPFTFGPGTKVDIK

>  <% Inhibition (%)>
20

$$$$
>  <Binder>
4B1 (antibody, V domains shown) VH: QVQLQESGPGLVKPSETLSLTCSVSGDSISSYSWSWIRQPAGKGLEWIGRIYTSGSTNYIPSLKSRITMSVDTSKKQFSLKLSSVTAADTAVYYCARDLKSSGCLFFDYWGQGTLVTVSS VL: DIQMTQSPSSLSASVGDRVTITCRASHTIRTYLNWYQQKPGKAPKLLIYAASSLQSGVPSRINGSGSGTDFTLTITNLQPEDFATYYCQQSYNISFTFGPGTKVDIK

>  <% Inhibition (%)>
75

$$$$

Data origin: patent US20190248902A1
